testProtocol: inhibitors of E-selectin induction by TNFa, primary screen, imaging, HUVEC, immunofluorescence, MLSMR starter and 10KST1 sets (AID 487);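 further: signal is fraction of cell area covered by stained E-selectin grains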
measurementConditions: HUVEC TNFalpha-induced E-selectin immunofluorescence imaging, at 2 µM; active compounds read high
Measured inhibition by item

| compound | inhibition, % |
| --- | --- |
| Cc1cc(=O)oc2c1c(C)nn2-c1ccc(C(=O)OC(C)C)cc1 | -67.2 |
| Cc1cccc(-c2nc(CN3CCCC(C(=O)NC4CCCC4)C3)c(C)o2)c1 (stereo unspecified) | -15.2 |
| COc1ccc(-c2nc(C#N)c(N3CCN(c4ccccc4)CC3)o2)cc1 | -64.6 |
| CCc1ccccc1NC(=O)CSc1ncn[nH]1 | 40 |
| COc1cccc(Cn2c(-c3nonc3N)nc3ccccc32)c1 | -97 |
| Cc1cc(C)nc(SCc2csc(N)n2)n1 | -56.8 |
| Cn1c2c(c(=O)n(C)c1=O)C(c1cccc(Br)c1)C1C(=O)c3ccccc3C1=N2 (stereo unspecified) | 3.3 |
| COc1ccc(N2C(N)=C(C#N)C(c3cccnc3)C3=C2CC(C)(C)CC3=O)cc1 (stereo unspecified) | -1.3 |
| COC(=O)CSc1nnc(C)c(=O)[nH]1 | -317 |
| Cn1c(Cl)nc2c1c(=O)n(Cc1cccc(Br)c1)c(=O)n2C | -97.4 |
| Cc1cc(Nc2ccc3ccccc3c2)n2ncnc2n1 | 56.4 |
| CCc1nnc(NC(=O)NCN2C(=O)C3C4C=CC(C4)C3C2=O)s1 (stereo unspecified) | -28.4 |
| Cc1cc(=O)oc(C)c1C(=O)NCCC1=CCCCC1 | -25.9 |
| Cn1c(OCc2cccnc2)nc2c1c(=O)n(Cc1ccccc1)c(=O)n2C | -145 |
| Nc1ccc2oc(-c3ccccc3Cl)nc2c1 | 7.8 |
| COc1cccc(-c2csc3nnc(SCC(=O)c4ccc(NC(C)=O)cc4)n23)c1 | -116 |
| CCN(C(=O)c1c(OC)cccc1OC)c1nnc(-c2cccnc2)s1 | -49.6 |
| O=c1oc2ccccc2c(O)c1C=NCc1ccccn1 | -63.5 |
| N#Cc1cc(Oc2cccc3cccnc23)c(-n2nnc3ccccc32)cc1C#N | -156 |
| CCN(CC)CCN1C(=O)C(O)=C(C(=O)c2cccs2)C1c1ccc(C)o1 (stereo unspecified) | -153 |
| CN(C#N)c1nc(N2CCOCC2)nc(N2CCOCC2)n1 | -192 |
| Cc1ccc(-n2ncc(C(=O)N3CCc4ccccc4C3)c2NC(=O)c2ccco2)cc1C | 0.3 |
| CCOC(=O)Oc1ccc2c(c1)C(C)=CC(C)(C)N2C(=O)OCC | -42 |
| O=C1CC(c2ccco2)CC(O)=C1C=NCCN1CCN(C2CC(=O)N(c3ccccc3)C2=O)CC1 (stereo unspecified) | -133 |
| COc1cc(C(=O)OCC(=O)N(C)Cc2ccccc2)cc(OC)c1OC | -264 |
| CCc1ccccc1NC(=O)c1ccoc1C | -12.3 |
| COc1ccc(N2CCN(c3oc(COc4ccc(Cl)cc4)nc3C#N)CC2)cc1 | -61.3 |
| CSc1nncc(=O)[nH]1 | -96.8 |
| COC(=O)/C=c1/s/c(=C(/C#N)C(=O)N2CCCCC2)n(-c2ccccc2)c1=O | -20.5 |
| Cc1cc(=O)n(C)c(=O)n1CCCNc1ccccc1 | -19.5 |
| Cc1cc(C)c(C#N)c(OCC(=O)c2ccccc2)n1 | -69 |
| COc1ccc(C(=O)NCC(=O)NC2=NCCS2)cc1 | -43.6 |
| COc1ccc(N2CCN(CCCNS(=O)(=O)c3c(C)noc3/C=C/N(C)C)CC2)cc1 | -36.7 |
| CS(=O)(=O)N(Cc1ccco1)CC(O)Cn1c2ccccc2c2ccccc21 (stereo unspecified) | -16.4 |
| O=c1oc2c3c4c(cc2s1)CCCN4CCC3 | -17.7 |
| Cc1ccccc1Cn1cc(/C=N/n2cnnc2)c2ccccc21 | 27.1 |
| Cc1cc(=O)n2[nH]c(N3C(=O)CCC3=O)nc2n1 | 47.3 |
| COc1ccccc1NCN1C(=O)CCC1=O | -32.2 |
| Cc1c(C#N)sc2nc(-c3ccccc3)nc(N3CCCC3)c12 | -50 |
| O=C(NC1CC1)C1CCC(=O)N1C1CCCC1 (stereo unspecified) | -184 |
| O=C(CN1C(=O)CCSc2ccccc21)Nc1ccccc1 | -140 |

From: PubChem BioAssay
